Molecular target: LRRK2 wild-type (Homo sapiens (Human))
Assay: Evaluation of inhibitory activity against LRRK2 (affinity bead competition binding), wild-type
Conditions: 100 nM; read-out: Residual active values (%) LRRK2
Description: In order to identify the activity inhibitory effect on the LRRK2 wild-type and LRRK2 mutant (G2019S) kinase of the example compound according to the present disclosure, BL21-derived E. coli bacteria (E. coli) were cultured in a 24-well plate until the growth phase (log phase). […] The activity inhibitory effect on the LRRK2 wild-type and LRRK2 mutant (G2019S) kinases of the example compounds according to the present disclosure was measured and shown in Table 10 below.
property_label: remaining binding at 0.1 µM (%)
One number for each entry, in %.

Some solved cases for reference:
Return value of remaining binding at 0.1 µM for input CCS(=O)(=O)N1CC[C@H](Nc2c(Br)cnc3[nH]c(-c4cc(C)n(-c5cccc(N6CCOCC6)c5)c4C)nc23)C1 [Example 2] , no commentary.
17

Return value of remaining binding at 0.1 µM for input CCS(=O)(=O)N1CC[C@H](Nc2c(Br)cnc3[nH]c(-c4cc(C)n(-c5cccc(S(=O)(=O)N6CCOCC6)c5)c4C)nc23)C1 [Example 11] , no commentary.
28

Return value of remaining binding at 0.1 µM for input CCS(=O)(=O)N1CC[C@H](Nc2c(Br)cnc3nc(-c4cc(C)n(-c5cccc(NS(C)(=O)=O)c5)c4C)[nH]c23)C1 [Example 12] , no commentary.
16

Return value of remaining binding at 0.1 µM for input CCS(=O)(=O)N1CC[C@H](Nc2c(Cl)cnc3nc(-c4cc(C)n(-c5cccc(C(=O)N6CCOCC6)c5)c4C)[nH]c23)C1 [Example 54] , no commentary.
24

Count: 5. Required value per item: remaining binding at 0.1 µM.
1. CCS(=O)(=O)N1CC[C@H](Nc2c(Br)cnc3[nH]c(-c4cc(C)n(-c5ccc(C(=O)N6CCOCC6)cc5C)c4C)nc23)C1 [Example 98]
2. Cc1ccc(C(=O)NCCN(C)C)cc1-n1c(C)cc(-c2nc3ncc(Br)c(Nc4cccc(S(N)(=O)=O)c4)c3[nH]2)c1C [Example 96]
3. Cc1ccc(C(=O)N2CCOCC2)cc1-n1c(C)cc(-c2nc3ncc(Br)c(Nc4cccc(S(N)(=O)=O)c4)c3[nH]2)c1C [Example 94]
4. CCS(=O)(=O)N1CC[C@H](Nc2c(Br)cnc3[nH]c(-c4cc(C)n(-c5cc(NS(C)(=O)=O)ccc5C)c4C)nc23)C1 [Example 7]
5. CCS(=O)(=O)N1CC[C@H](Nc2c(Br)cnc3[nH]c(-c4cc(C)n(-c5cccc(C(=O)O)c5)c4C)nc23)C1 [Example 58]

1: 18; 2: 0.4; 3: 70; 4: 2.9; 5: 5

Count: 4. Required value per item: remaining binding at 0.1 µM.
1. Cc1ccc(NC(=O)CN2CCOCC2)cc1-n1c(C)cc(-c2nc3ncc(Br)c(Nc4cccc(S(N)(=O)=O)c4)c3[nH]2)c1C [Example 88]
2. CCS(=O)(=O)N1CC[C@H](Nc2c(Br)cnc3nc(-c4cc(C)n(-c5cccc(C(=O)N6CCN(C)CC6)c5C)c4C)[nH]c23)C1 [Example 81]
3. CCS(=O)(=O)N1CC[C@H](Nc2c(Br)cnc3[nH]c(-c4cc(C)n(-c5ccccc5)c4C)nc23)C1 [Example 25]
4. Cc1ccc(C(=O)N2CCN(C)CC2)cc1-n1c(C)cc(-c2nc3ncc(Br)c(Nc4cccc(S(N)(=O)=O)c4)c3[nH]2)c1C [Example 95]

[73, 0.7, 49, 68]

* * *

For each record, write down the corresponding inhibition at 10 µM.
system: human lung cancer cell line A549; assay: Cancer cell proliferation inhibitory activity evaluation 2 (CCK-8), A549; format: cell-based; details: A549, 10 μM, 72 hours, CCK-8, read-out: Cancer cell proliferation inhibitory activity A549

Some solved cases for reference:
Return value of inhibition at 10 µM for input CCS(=O)(=O)N1CC[C@H](Nc2c(Br)cnc3nc(-c4cc(C)n(-c5cc(NC(=O)CN(C)C)ccc5C)c4C)[nH]c23)C1 [Example 74] , no commentary.
> 50%

Return value of inhibition at 10 µM for input Cc1ccc(NC(=O)CN(C)C)cc1-n1c(C)cc(-c2nc3ncc(Br)c(Nc4cccc(S(N)(=O)=O)c4)c3[nH]2)c1C [Example 90] , no commentary.
10 to 50%

Moving on to the next compound.
Return value of inhibition at 10 µM for input CCS(=O)(=O)N1CC[C@H](Nc2c(Cl)cnc3nc(-c4cc(C)n(-c5ccc(OCCN6CCOCC6)cc5)c4C)[nH]c23)C1 [Example 52] , no commentary.
10 to 50%

* * *

test system: influenza virus HK; test: microbe, parasite or virus in culture; format: cell-based; conditions: unidentified influenza virus, MDCK, read-out: Antiviral activity (EC50, μM) HK
For each record, write down the corresponding EC50.
Give bare numbers, in µM.

Some solved cases for reference:
Return value of EC50 for input `CCS(=O)(=O)N1CC[C@H](Nc2c(Br)cnc3[nH]c(-c4cc(C)n(-c5cc(S(N)(=O)=O)ccc5Cl)c4C)nc23)C1` , no commentary.
10.8

Return value of EC50 for input `CCS(=O)(=O)N1CC[C@H](Nc2c(Br)cnc3nc(-c4cc(C)n(-c5cccc(S(N)(=O)=O)c5)c4C)[nH]c23)C1` , no commentary.
31.6

Return value of EC50 for input `CCS(=O)(=O)N1CC[C@H](Nc2c(Br)cnc3nc(-c4cc(C)n(-c5ccc(OCCN6CCOCC6)cc5)c4C)[nH]c23)C1` , no commentary.
9.8

Return value of EC50 for input `CCS(=O)(=O)N1CC[C@H](Nc2c(Br)cnc3nc(-c4cc(C)n(-c5cccc(NS(C)(=O)=O)c5)c4C)[nH]c23)C1` , no commentary.
27

Moving on to the next compound.
Return value of EC50 for input `CCS(=O)(=O)N1CC[C@H](Nc2c(Br)cnc3[nH]c(-c4cc(C)n(-c5cc(NS(C)(=O)=O)ccc5C)c4C)nc23)C1` , no commentary.
40

* * *

target: LRRK2 wild-type (Homo sapiens (Human), UniProt Q5S007); test: Evaluation of inhibitory activity against LRRK2 (affinity bead competition binding), wild-type; settings: 500 nM; read-out: Residual active values (%) LRRK2
Sequence (Q5S007 whole entry, looked up): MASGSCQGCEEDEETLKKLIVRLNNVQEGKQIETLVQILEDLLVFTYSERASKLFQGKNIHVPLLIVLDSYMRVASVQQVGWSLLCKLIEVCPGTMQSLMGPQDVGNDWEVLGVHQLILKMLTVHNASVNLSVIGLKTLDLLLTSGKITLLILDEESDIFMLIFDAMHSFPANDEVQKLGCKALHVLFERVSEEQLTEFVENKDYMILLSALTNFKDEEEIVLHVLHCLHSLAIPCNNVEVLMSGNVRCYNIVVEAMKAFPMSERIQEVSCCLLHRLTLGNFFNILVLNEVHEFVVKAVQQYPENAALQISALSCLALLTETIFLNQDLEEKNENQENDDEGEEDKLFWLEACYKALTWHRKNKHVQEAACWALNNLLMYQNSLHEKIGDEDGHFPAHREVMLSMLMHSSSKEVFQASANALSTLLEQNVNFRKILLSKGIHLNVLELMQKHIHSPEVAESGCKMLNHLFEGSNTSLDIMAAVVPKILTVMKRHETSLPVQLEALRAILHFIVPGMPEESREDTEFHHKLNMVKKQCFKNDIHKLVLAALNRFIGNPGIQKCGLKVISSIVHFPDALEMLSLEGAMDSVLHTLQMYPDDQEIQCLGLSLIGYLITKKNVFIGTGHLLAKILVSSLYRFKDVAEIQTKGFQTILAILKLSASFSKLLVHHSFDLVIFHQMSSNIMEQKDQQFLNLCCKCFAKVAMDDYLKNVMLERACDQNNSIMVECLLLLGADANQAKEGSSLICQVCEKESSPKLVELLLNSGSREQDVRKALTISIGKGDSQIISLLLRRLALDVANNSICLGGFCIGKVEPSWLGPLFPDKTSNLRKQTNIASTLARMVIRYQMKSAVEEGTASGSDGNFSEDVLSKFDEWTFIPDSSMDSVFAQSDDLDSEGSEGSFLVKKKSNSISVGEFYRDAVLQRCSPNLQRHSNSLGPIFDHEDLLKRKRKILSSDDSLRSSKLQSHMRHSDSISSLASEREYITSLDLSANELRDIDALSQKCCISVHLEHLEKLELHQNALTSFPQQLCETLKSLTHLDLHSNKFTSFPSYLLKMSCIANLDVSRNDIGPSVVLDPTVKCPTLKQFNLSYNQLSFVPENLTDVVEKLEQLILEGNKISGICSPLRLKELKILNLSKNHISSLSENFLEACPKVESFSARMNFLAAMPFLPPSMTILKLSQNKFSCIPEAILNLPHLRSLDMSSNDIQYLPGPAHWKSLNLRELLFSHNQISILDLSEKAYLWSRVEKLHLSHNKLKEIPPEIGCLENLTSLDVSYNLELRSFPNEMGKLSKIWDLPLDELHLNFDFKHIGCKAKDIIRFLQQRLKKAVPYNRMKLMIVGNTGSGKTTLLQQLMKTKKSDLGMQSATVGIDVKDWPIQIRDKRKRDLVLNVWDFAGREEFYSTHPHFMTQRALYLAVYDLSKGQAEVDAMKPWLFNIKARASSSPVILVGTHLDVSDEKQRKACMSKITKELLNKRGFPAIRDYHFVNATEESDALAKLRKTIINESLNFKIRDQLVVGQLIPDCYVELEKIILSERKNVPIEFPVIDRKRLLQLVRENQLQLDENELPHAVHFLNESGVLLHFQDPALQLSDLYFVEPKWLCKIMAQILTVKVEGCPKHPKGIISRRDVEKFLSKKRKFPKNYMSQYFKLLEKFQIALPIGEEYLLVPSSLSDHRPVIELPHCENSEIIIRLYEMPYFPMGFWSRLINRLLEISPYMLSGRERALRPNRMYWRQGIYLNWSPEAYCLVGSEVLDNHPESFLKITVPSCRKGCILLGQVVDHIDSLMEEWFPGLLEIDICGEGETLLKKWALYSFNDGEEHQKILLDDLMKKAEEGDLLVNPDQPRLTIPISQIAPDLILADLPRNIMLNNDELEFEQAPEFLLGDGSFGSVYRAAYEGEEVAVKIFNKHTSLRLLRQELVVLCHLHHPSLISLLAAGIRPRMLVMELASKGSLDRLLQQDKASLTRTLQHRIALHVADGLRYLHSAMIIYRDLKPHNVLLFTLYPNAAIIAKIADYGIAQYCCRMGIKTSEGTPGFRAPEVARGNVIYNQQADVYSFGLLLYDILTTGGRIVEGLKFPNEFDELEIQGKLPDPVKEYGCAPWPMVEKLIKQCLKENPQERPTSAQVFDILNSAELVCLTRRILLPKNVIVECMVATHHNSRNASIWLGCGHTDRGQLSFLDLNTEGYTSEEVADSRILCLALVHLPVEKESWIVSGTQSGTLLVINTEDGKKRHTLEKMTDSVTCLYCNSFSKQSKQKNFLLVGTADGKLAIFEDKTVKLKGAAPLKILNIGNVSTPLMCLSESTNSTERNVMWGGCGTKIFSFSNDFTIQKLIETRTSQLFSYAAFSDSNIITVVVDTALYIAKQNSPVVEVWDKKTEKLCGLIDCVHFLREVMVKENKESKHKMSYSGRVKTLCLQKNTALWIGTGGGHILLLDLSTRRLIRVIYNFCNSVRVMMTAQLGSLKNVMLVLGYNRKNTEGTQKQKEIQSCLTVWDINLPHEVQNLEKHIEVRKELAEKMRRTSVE
For each record, write down the corresponding remaining binding at 0.5 µM.

Some solved cases for reference:
Return value of remaining binding at 0.5 µM for input CCS(=O)(=O)N1CC[C@H](Nc2c(Br)cnc3nc(-c4cc(C)n(-c5cc(C(=O)NCCN(C)C)ccc5C)c4C)[nH]c23)C1 [Example 93] , no commentary.
51%

Return value of remaining binding at 0.5 µM for input Cc1ccc(C(=O)NCCN(C)C)cc1-n1c(C)cc(-c2nc3ncc(Br)c(Nc4cccc(S(N)(=O)=O)c4)c3[nH]2)c1C [Example 96] , no commentary.
0%

Return value of remaining binding at 0.5 µM for input CCS(=O)(=O)N1CC[C@H](Nc2c(Br)cnc3[nH]c(-c4cc(C)n(-c5ccccc5)c4C)nc23)C1 [Example 25] , no commentary.
17%

Count: 4. Required value per item: remaining binding at 0.5 µM.
1. CCS(=O)(=O)N1CC[C@H](Nc2c(Br)cnc3nc(-c4cc(C)n(-c5cccc(C(=O)N6CCN(C)CC6)c5C)c4C)[nH]c23)C1 [Example 81]
2. CCS(=O)(=O)N1CC[C@H](Nc2c(Br)cnc3nc(-c4cc(C)n(-c5cccc(NS(C)(=O)=O)c5)c4C)[nH]c23)C1 [Example 12]
3. CCS(=O)(=O)N1CC[C@H](Nc2c(Br)cnc3[nH]c(-c4cc(C)n(-c5cccc(S(=O)(=O)N6CCOCC6)c5)c4C)nc23)C1 [Example 11]
4. CCS(=O)(=O)N1CC[C@H](Nc2c(Br)cnc3[nH]c(-c4cc(C)n(-c5cccc(C(=O)O)c5)c4C)nc23)C1 [Example 58]

1. 0.6%
2. 3.7%
3. 6.9%
4. 0.7%

* * *

biological target: LRRK2 mutant (G2019S) (Homo sapiens (Human), UniProt Q5S007, G2019S); experiment: Evaluation of inhibitory activity against LRRK2 (affinity bead competition binding), G2019S mutant; settings: 100 nM; read-out: Residual active values (%) LRRK2(G2019S)
Sequence (Q5S007 whole entry G2019S, looked up): as the sequence (Q5S007 whole entry, looked up) above, with G2019S counted along it
property_label: remaining binding at 0.1 µM (%)
Give bare numbers, in %.

Some solved cases for reference:
Report value: remaining binding at 0.1 µM, system: LRRK2 mutant (G2019S) (Homo sapiens (Human), UniProt Q5S007, G2019S), compound: `CCS(=O)(=O)N1CC[C@H](Nc2c(Br)cnc3[nH]c(-c4cc(C)n(-c5ccccc5)c4C)nc23)C1`
15

Report value: remaining binding at 0.1 µM, system: LRRK2 mutant (G2019S) (Homo sapiens (Human), UniProt Q5S007, G2019S), compound: `CCS(=O)(=O)N1CC[C@H](Nc2c(Br)cnc3nc(-c4cc(C)n(-c5cccc(C(=O)N6CCN(C)CC6)c5C)c4C)[nH]c23)C1`
0

Moving on to the next compound.
Report value: remaining binding at 0.1 µM, system: LRRK2 mutant (G2019S) (Homo sapiens (Human), UniProt Q5S007, G2019S), compound: `Cc1ccc(C(=O)N2CCOCC2)cc1-n1c(C)cc(-c2nc3ncc(Br)c(Nc4cccc(S(N)(=O)=O)c4)c3[nH]2)c1C`
59
